The entries below are paired with their reported protein stability index.
B1: MMP1 (parent)
chain: FVRGDHRDNSPFDGPGGNLAHAFQ

Variants of: B1
EXPERIMENTAL PROTOCOL: protein stability index of a GFP-peptide fusion (GPS, HEK-293T) (PSI 1-6); higher = more stable;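 also: lentivirally expressed fusions sorted by FACS into six bins by GFP to DsRed ratio, PSI derived from sequencing read proportions per bin multiplied by bin number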
CONDITION: c terminus: a fixed tail appended
Write the number on its own, no unit after it.

> print(dat)
   mutant         measurement.name  result
1     H6I  protein stability index    1.55
2    D13K  protein stability index    1.59
3    F12C  protein stability index       2
4    A22P  protein stability index    3.37
5     H6E  protein stability index    1.76

INPUT: Provide only the value of recorded protein stability index for A22M
OUTPUT: 2.4

INPUT: Provide only the value of recorded protein stability index for P11F
OUTPUT: 1.83

INPUT: Provide only the value of recorded protein stability index for G16D
OUTPUT: 2.29

INPUT: Provide only the value of recorded protein stability index for P11E
OUTPUT: 2.06

INPUT: Provide only the value of recorded protein stability index for R7K
OUTPUT: 1.68

INPUT: Provide only the value of recorded protein stability index for V2A
OUTPUT: 1.66
